Molecular target: T1, C-terminal domain-deleted human Regnase-1 (amino acids 1 to 546) with N-terminal FLAG tag and C-terminal BirA … (human, UniProt Q5D1E8 1-546)
T1 sequence: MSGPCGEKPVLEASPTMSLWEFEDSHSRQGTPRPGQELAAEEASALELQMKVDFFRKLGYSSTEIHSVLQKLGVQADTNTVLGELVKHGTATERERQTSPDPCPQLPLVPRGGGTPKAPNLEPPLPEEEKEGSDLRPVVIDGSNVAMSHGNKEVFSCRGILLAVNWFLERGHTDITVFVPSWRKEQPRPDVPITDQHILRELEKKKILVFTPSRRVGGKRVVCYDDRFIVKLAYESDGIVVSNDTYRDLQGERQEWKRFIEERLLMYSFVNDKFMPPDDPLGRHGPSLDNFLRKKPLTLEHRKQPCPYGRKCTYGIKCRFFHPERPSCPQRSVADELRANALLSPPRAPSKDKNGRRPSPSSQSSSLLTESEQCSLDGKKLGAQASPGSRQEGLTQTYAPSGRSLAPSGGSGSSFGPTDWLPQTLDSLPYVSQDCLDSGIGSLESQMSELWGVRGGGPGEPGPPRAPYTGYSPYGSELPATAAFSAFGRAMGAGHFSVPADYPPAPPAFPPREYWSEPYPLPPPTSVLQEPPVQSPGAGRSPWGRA
Assay: cell-based or functional assay
Positions of bridges follow the written chain, without caps; N, C: chain ends. Non-standard residues stand in square brackets, D forms with d. *: point of attachment. Pyrrolidide = C1CCN(*)C1; dNMeA = CN[C@H](C)C(=O)O
Entries annotated with measured 50% inhibition concentration, Regnase-1 phosphorylation by TBK1 (AlphaScreen)
metricName: 50% inhibition concentration, Regnase-1 phosphorylation by TBK1 (AlphaScreen) (µM)

binder: XRFGVWSWIYPD (HELM PEPTIDE1{[meA].R.F.G.V.W.S.W.I.Y.P.D.[C1CCN([*:1])C1]}$PEPTIDE1,PEPTIDE1,1:R1-12:R3$$$V2.0; SMILES CC[C@H](C)[C@@H]1NC(=O)[C@H](Cc2c[nH]c3ccccc23)NC(=O)[C@H](CO)NC(=O)[C@H](Cc2c[nH]c3ccccc23)NC(=O)[C@H](C(C)C)NC(=O)CNC(=O)[C@H](Cc2ccccc2)NC(=O)[C@H](CCCNC(=N)N)NC(=O)[C@H](C)N(C)C(=O)C[C@@H](C(=O)N2CCCC2)NC(=O)[C@@H]2CCCN2C(=O)[C@H](Cc2ccc(O)cc2)NC1=O) [PP14]
assayResult: 5.2

binder: [dNMeA]KHASAWYRIWD-Pyrrolidide (lactam N-12) [PP3]
assayResult: 5.7
